Give damage to plant (100=total damage; 0=no damage) SETFA for every item shown.
Test system: giant foxtail (Setaria faberi, SETFA)
Assay: Test A post-emergence, giant foxtail
Assay type: in vivo
Settings: Post-Emergence at 15.625 g/ha; after 13 d
Give the figure only, with no unit attached.

molecule `CN1C[C@H](c2nn(C)c3c(Cl)cccc23)[C@@H](C(=O)Nc2cccc(F)c2F)C1=O` , damage to plant (100=total damage; 0=no damage) SETFA observed: 10

molecule CN1CC(c2cc(C(F)(F)F)n(C)n2)C(C(=O)Nc2cccc(F)n2)C1=O (racemic) , damage to plant (100=total damage; 0=no damage) SETFA observed: 20

molecule CN1CC(c2cc(C(F)(F)F)n(C)n2)C(C(=O)Nc2cccc(F)c2C(F)(F)F)C1=O (racemic) , damage to plant (100=total damage; 0=no damage) SETFA observed: 70

molecule CN1CC(c2nn(C)c(Cl)c2Br)C(C(=O)Nc2ccc(F)cc2F)C1=O (racemic) , damage to plant (100=total damage; 0=no damage) SETFA observed: 10

molecule CN1CC(c2cc(Cl)n(C)n2)C(C(=O)Nc2cccc(F)c2F)C1=O (racemic) , damage to plant (100=total damage; 0=no damage) SETFA observed: 10

molecule `CN1C[C@H](c2nn(C)c3c(F)cccc23)[C@@H](C(=O)Nc2cccc(F)c2F)C1=O` , damage to plant (100=total damage; 0=no damage) SETFA observed: 0

molecule `CCn1nc([C@H]2CN(C)C(=O)[C@@H]2C(=O)Nc2cccc(F)c2F)c2ccc(F)cc21` , damage to plant (100=total damage; 0=no damage) SETFA observed: 90

molecule CN1CC(c2cc(Cl)n(C)n2)C(C(=O)Nc2ccc(F)c(F)c2F)C1=O (racemic) , damage to plant (100=total damage; 0=no damage) SETFA observed: 40
